Test system: Staphylococcus aureus
Experiment: Antibacterial activity against Staphylococcus aureus after 18 hrs by broth microdilution method
Type: functional
parameter: MIC50 (µg/mL)
Give just the number in µg/mL; leave the unit off.

# smilesText, resultUnit, MIC50
measured = [
    ("O=C(CSC(=S)N[C@H]1CCOC1=O)Nc1cccc(C(F)(F)F)c1", "µg/mL", 5.81),
    ("O=C(CSC(=S)N[C@H]1CCOC1=O)Nc1cccc([N+](=O)[O-])c1", "µg/mL", 8.67),
]

Query molecule follows.
## Task Provide value of MIC50 for this record tested with Staphylococcus aureus: `O=C(CSC(=S)N[C@H]1CCOC1=O)Nc1ccccc1F`
## Result 6.53
